# TARGET_SYSTEM: human Farnesoid X receptor ligand-binding domain/Gal4 DNA binding domain chimera (Homo sapiens (Human), UniProt Q96RI1)
# Sequence (P04386 1-147 partner, one chain of several): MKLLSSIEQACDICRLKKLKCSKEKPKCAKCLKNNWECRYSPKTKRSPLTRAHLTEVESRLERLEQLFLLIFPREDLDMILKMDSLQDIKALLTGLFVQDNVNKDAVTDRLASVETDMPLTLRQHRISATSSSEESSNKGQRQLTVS
# PROCEDURE_DETAILS: Cell-based assay of FXR activation (FXR-UAS-bla HEK 293T beta-lactamase reporter)
# EXPERIMENTAL_SETUP: cellular FXR beta-lactamase reporter assay, FXR-UAS-bla HEK 293T cells, 16 h; pEC50 = -log EC50
Threshold-based label: EC50 under 10 nM gives criterion met, EC50 not under 10 nM gives criterion not met.

q: is_below(EC50, 10 nM) for CCc1cc(C(=O)O)cc2sc(N3C[C@@H]4C[C@H]3C[C@H]4OCc3c(-c4c(Cl)cccc4Cl)noc3C3CC3)nc12 [Compound I-246] ?
a: criterion met

q: is_below(EC50, 10 nM) for O=CN(O)Cc1ccc(N2C[C@@H]3C[C@H]2C[C@H]3OCc2c(-c3c(Cl)cccc3Cl)noc2C2CC2)cc1 [Compound I-161] ?
a: criterion not met

q: is_below(EC50, 10 nM) for O=C(O)c1cnc(N2C[C@@H]3C[C@H]2C[C@H]3OCc2c(-c3c(Cl)cccc3Cl)noc2C2CC2)c(F)c1 [Compound I-129] ?
a: criterion met

q: is_below(EC50, 10 nM) for O=C(O)c1ccc(N2C[C@@H]3C[C@H]2C[C@H]3OCc2c(-c3c(Cl)cccc3Cl)noc2C2CC2)c(F)c1 [Compound I-53] ?
a: criterion met

q: is_below(EC50, 10 nM) for O=C(NS(=O)(=O)C1CC1)c1cc(F)c2nc(N3C[C@@H]4C[C@H]3C[C@H]4OC(=O)c3c(-c4c(Cl)cccc4Cl)noc3C3CC3)sc2c1 [Compound I-33] ?
a: criterion not met

q: is_below(EC50, 10 nM) for O=C(O)c1cc([C@H]2CCOC2)c2nc(N3C[C@@H]4C[C@H]3C[C@H]4OCc3c(C4CCC5(CC4)CC5)noc3C3CC3)sc2c1 [Compound I-280] ?
a: criterion not met

q: is_below(EC50, 10 nM) for O=C(NS(=O)(=O)CCC(O)CO)c1ccc(N2C[C@@H]3C[C@H]2C[C@H]3OCc2c(-c3c(Cl)cccc3Cl)noc2C2CC2)cc1 (some centres unmarked) [Compound I-219] ?
a: criterion not met

* * *

# TARGET_SYSTEM: ligand binding domain of human FXR (Homo sapiens (Human))
# Sequence (Q96RI1 262-486): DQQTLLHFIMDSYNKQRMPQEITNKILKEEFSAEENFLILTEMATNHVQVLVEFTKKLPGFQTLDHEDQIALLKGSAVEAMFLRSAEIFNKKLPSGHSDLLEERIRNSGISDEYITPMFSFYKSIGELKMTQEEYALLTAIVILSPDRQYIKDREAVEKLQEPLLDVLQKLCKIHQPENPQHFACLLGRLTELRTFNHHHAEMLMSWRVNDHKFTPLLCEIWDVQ
# PROCEDURE_DETAILS: FXR ligand binding assay (LanthaScreen TR-FRET, SRC2-2 peptide recruitment)
# EXPERIMENTAL_SETUP: read-out: % Efficacy
READOUT: Emax
Please answer using the number first and the unit second.

q: Query Emax on ligand binding domain of human FXR (Homo sapiens (Human)) for O=C(O)c1ccc(N2C[C@H]3C[C@@H]2C[C@@H]3OCc2c(-c3c(Cl)cccc3Cl)noc2C2CC2)c(F)c1 [Compound I-131]
a: 108%

q: Query Emax on ligand binding domain of human FXR (Homo sapiens (Human)) for O=C(O)c1ccc(N2C[C@@H]3C[C@H]2C[C@H]3OCc2c(C3CCC4(CC3)CC4)noc2C2CC2)cc1 [Compound I-125]
a: 92%

Further cases:
q: Query Emax on ligand binding domain of human FXR (Homo sapiens (Human)) for CC(O)CCS(=O)(=O)NC(=O)c1ccc(N2C[C@@H]3C[C@H]2C[C@H]3OCc2c(-c3c(Cl)cccc3Cl)noc2C2CC2)cc1 (stereo partly shown) [Compound I-217]
a: 142%

q: Query Emax on ligand binding domain of human FXR (Homo sapiens (Human)) for O=C(O)CCc1ccc(N2C[C@@H]3C[C@H]2C[C@H]3OCc2c(-c3c(Cl)cccc3Cl)noc2C2CC2)cc1 [Compound I-147]
a: 142%

* * *

# TARGET_SYSTEM: human Farnesoid X receptor ligand-binding domain/Gal4 DNA binding domain chimera (Homo sapiens (Human), UniProt Q96RI1)
# PROCEDURE_DETAILS: Cell-based assay of FXR activation (FXR-UAS-bla HEK 293T beta-lactamase reporter)
# EXPERIMENTAL_SETUP: cellular FXR beta-lactamase reporter assay, FXR-UAS-bla HEK 293T cells, 16 h; pEC50 = -log EC50
# Procedure: FXR activation was measured using a cell line and procedure obtained from Life Technologies (Cat # K1691). FXR-UAS-bla HEK 293T cells contain a human Farnesoid X receptor ligand-binding domain/Gal4 DNA binding domain chimera stably integrated into the CellSensor® UAS-bla HEK 293T cell line. […] Activation of FXR by bound ligands results in transcriptional activation of the beta-lactamase reporter gene, which is detected via assay of beta-lactamase activity. […]
READOUT: EC50 (nM)
Respond numerically; units are nM and should not be typed.

Observe how each entry below is paired with its result.
q: Which EC50 is reported for this compound? O=C(O)CCc1ccc(N2C[C@@H]3C[C@H]2C[C@H]3OCc2c(-c3c(Cl)cccc3Cl)noc2C2CC2)cc1
a: 0.631

q: Which EC50 is reported for this compound? O=C(O)c1ccc(N2C[C@@H]3C[C@H]2C[C@H]3OCc2c(C3CCC4(CC3)CC4)noc2C2CC2)cc1
a: 251

q: Which EC50 is reported for this compound? O=C(O)Cc1ccc(N2C[C@@H]3C[C@H]2C[C@H]3OCc2c(-c3c(Cl)cccc3Cl)noc2C2CC2)cc1
a: 7.94

Let's switch to this compound now.
q: Which EC50 is reported for this compound? O=C(CCc1ccc(N2C[C@@H]3C[C@H]2C[C@H]3OCc2c(-c3c(F)cccc3Cl)noc2C2CC2)c(F)c1)NS(=O)(=O)C1CC1
a: 6.31

* * *

# TARGET_SYSTEM: ligand binding domain of human FXR (Homo sapiens (Human))
# PROCEDURE_DETAILS: FXR ligand binding assay (LanthaScreen TR-FRET, SRC2-2 peptide recruitment)
# EXPERIMENTAL_SETUP: -log EC50, concentration required to produce 50% activation
# Protocol: The affinity of FXR ligands for the ligand binding domain of FXR was determined using a commercially available human FXR ligand binding assay (LanthaScreen, Thermofisher Cat # PV4833). […] Test compounds are dissolved in DMSO and a 3-fold serial dilution series is generated, then further diluted into assay buffer. […] The reaction is incubated at room temperature for 1 hour, then the FRET signal is measured as the ratio of the 520 nm/495 nm emission following excitation at 340 nm. […]
READOUT: pEC50
Keep it simple and answer with nothing but the number.

Observe how each entry below is paired with its result.
q: Which pEC50 is reported for this compound? O=C(O)c1ccc(N2C[C@@H]3C[C@H]2C[C@H]3OCc2c(-c3c(Cl)cccc3Cl)noc2C2(F)CC2)c(F)c1
a: 7.9

q: Which pEC50 is reported for this compound? CCCS(=O)(=O)NC(=O)c1ccc(N2C[C@@H]3C[C@H]2C[C@H]3OC(=O)c2c(-c3c(Cl)cccc3Cl)noc2C2CC2)c(F)c1
a: 8

q: Which pEC50 is reported for this compound? O=C(O)CNC(=O)c1ccc(N2C(=O)[C@@H]3C[C@H]2C[C@H]3OCc2c(-c3c(Cl)cccc3Cl)noc2C2CC2)cc1
a: 8

q: Which pEC50 is reported for this compound? O=C(O)c1cc(F)c2nc(N3C[C@@H]4C[C@H]3C[C@H]4OCc3c(-c4ccccc4C(F)(F)F)noc3C3CC3)sc2c1
a: 8

q: Which pEC50 is reported for this compound? CCc1cc(C(=O)O)cc2sc(N3C(=O)[C@@H]4C[C@H]3C[C@H]4OCc3c(-c4c(Cl)cccc4Cl)noc3C3CC3)nc12
a: 8.2

Let's switch to this compound now.
q: Which pEC50 is reported for this compound? O=C(O)c1ccc(N2C(=O)[C@@H]3C[C@H]2C[C@H]3OCc2c(-c3c(F)cccc3C3CC3)noc2C2CC2)cc1
a: 7.8

* * *

# TARGET_SYSTEM: human Farnesoid X receptor ligand-binding domain/Gal4 DNA binding domain chimera (Homo sapiens (Human))
# PROCEDURE_DETAILS: Cell-based assay of FXR activation (FXR-UAS-bla HEK 293T beta-lactamase reporter)
# EXPERIMENTAL_SETUP: cellular FXR beta-lactamase reporter assay, FXR-UAS-bla HEK 293T cells, 16 h; pEC50 = -log EC50
Entries and their pEC50 values follow.
Scale: negative log10 of molar concentration, which is what pEC50 denotes.

q: Which pEC50 is reported for this compound? Cc1cccc(Cl)c1-c1noc(C2CC2)c1CO[C@@H]1C[C@@H]2C[C@H]1CN2c1ccc(CCC(=O)O)cc1F
a: 8.80

q: Which pEC50 is reported for this compound? Cc1cccc(Cl)c1-c1noc(C2CC2)c1CO[C@@H]1C[C@@H]2C[C@H]1CN2c1ccc(C(=O)O)cc1F
a: 9.10

q: Which pEC50 is reported for this compound? O=C(O)CCc1ccc(N2C[C@@H]3C[C@H]2C[C@H]3OCc2c(-c3c(Cl)cccc3Cl)noc2C2CC2)cc1F
a: 9.00

q: Which pEC50 is reported for this compound? O=C(O)c1cc(F)c2nc(N3C[C@@H]4C[C@H]3C[C@H]4OCc3c(-c4c(Cl)cccc4Cl)noc3C3(F)CC3)sc2c1
a: 9.20

q: Which pEC50 is reported for this compound? N#Cc1cc(C(=O)O)ccc1N1C[C@@H]2C[C@H]1C[C@H]2OCc1c(-c2c(Cl)cccc2Cl)noc1C1CC1
a: 9.10

q: Which pEC50 is reported for this compound? N#Cc1cc(N2C[C@@H]3C[C@H]2C[C@H]3OCc2c(-c3c(Cl)cccc3Cl)noc2C2CC2)ccc1C(=O)O
a: 9.00

q: Which pEC50 is reported for this compound? O=C(NCCS(=O)(=O)C1CCOCC1)c1ccc(N2C[C@@H]3C[C@H]2C[C@H]3OCc2c(-c3c(Cl)cccc3Cl)noc2C2CC2)cc1F
a: 9.00

q: Which pEC50 is reported for this compound? O=C(O)c1ccc(N2C[C@@H]3C[C@H]2C[C@H]3OCc2c(-c3c(Cl)cccc3Cl)noc2C2CC2)c(C(F)(F)F)c1
a: 9.20

Further cases:
q: Which pEC50 is reported for this compound? O=C(NS(=O)(=O)[C@@H]1CCC[C@H]1O)c1ccc(N2C(=O)[C@@H]3C[C@H]2C[C@H]3OCc2c(-c3c(Cl)cccc3Cl)noc2C2CC2)cc1
a: 8.80

q: Which pEC50 is reported for this compound? O=C(NS(=O)(=O)C1CCOCC1)c1ccc(N2C(=O)[C@@H]3C[C@H]2C[C@H]3OCc2c(-c3c(Cl)cccc3Cl)noc2C2CC2)cc1
a: 7.80
